FYI, the data here is from a collection of fitness landscapes (doi:10.1016/j.celrep.2020.107928).

B1: Caulobacter ParB omega fusion; a variant is named by its letters at X, in order, B8GW30 (parent)
chain: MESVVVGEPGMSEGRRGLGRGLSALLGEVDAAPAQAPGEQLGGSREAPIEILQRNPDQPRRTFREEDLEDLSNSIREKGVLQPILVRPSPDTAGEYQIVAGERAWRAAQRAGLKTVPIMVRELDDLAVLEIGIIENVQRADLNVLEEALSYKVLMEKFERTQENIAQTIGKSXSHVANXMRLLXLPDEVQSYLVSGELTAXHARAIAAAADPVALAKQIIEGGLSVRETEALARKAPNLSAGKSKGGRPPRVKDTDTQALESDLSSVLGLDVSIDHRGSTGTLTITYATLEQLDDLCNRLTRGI

- Variants of: B1
- Method summary: one-hybrid fitness for binding NBS DNA (the Noc-binding site; scaled: cognate 1, non-cognate 0); higher = stronger binding
- Condition context: with NBS DNA site
In all, about 81,000 sequences were measured (“one-hybrid fitness for binding NBS DNA”: median about -0.1, highest 2% from about 0.36 on). This is one part of a sample in which the highest values are shown more often than they occur.
Give one-hybrid fitness for binding NBS DNA for every item shown.

The examples below pair each entry with its known result.
| Mutation code | Reported |
| --- | --- |
| RVEC | ≤ 0.2 |
| FEYF | ≤ 0.2 |
| QSVN | ≤ 0.2 |
| QCVR | 0.48 |
| QKWY | ≤ 0.2 |
| GICT | ≤ 0.2 |
| TYAY | ≤ 0.2 |
| NSNP | ≤ 0.2 |
| QSHQ | ≤ 0.2 |
| VKHG | ≤ 0.2 |

Would you mind giving one-hybrid fitness for binding NBS DNA for every variant in the list below?
1. RCSW
2. QGVR
3. RNWC
4. EMRR
5. QKWD

Response:
≤ 0.2
≤ 0.2
≤ 0.2
0.21
0.405

Hello, I would appreciate it if you could give one-hybrid fitness for binding NBS DNA for each entry below.
1. TYVA
2. VKGK
3. HNLL

Response:
["≤ 0.2", "≤ 0.2", "≤ 0.2"]

For the 8 variants below, give their one-hybrid fitness for binding NBS DNA values.
1. PDTG
2. QCWR
3. QPVH
4. HSWC
5. QKWS
6. QCHC
7. QPVR
8. HMKG

Response:
1. ≤ 0.2
2. 0.49
3. ≤ 0.2
4. ≤ 0.2
5. 0.33
6. 0.238
7. 0.377
8. ≤ 0.2
